The origin of these recorded values is patent US10239851B2.

Assignment: determine reported dissociation percent for the given molecules.
Assay: In vitro dissociation of the water soluble taxane derivatives in blood plasma of rabbit
Format: in vitro ADME, New Zealand white rabbits
Conditions: 37° C., 20 min

# input Sample CO[C@H]1C(=O)[C@]2(C)[C@@H](OC)C[C@H]3OC[C@@]3(OC(C)=O)[C@H]2[C@H](OC(=O)c2ccccc2)[C@]2(O)C[C@H](OC(=O)[C@H](OC(=O)C(F)CCN(C)C)[C@@H](NC(=O)OC(C)(C)C)c3ccccc3)C(C)=C1C2(C)C.CS(=O)(=O)O (some centres unmarked) — what was its dissociation percent?
# output 96.7%

# input Return reported dissociation percent; argument: CC(=O)O[C@@]12CO[C@@H]1C[C@H](O)[C@@]1(C)C(=O)[C@H](O)C3=C(C)[C@@H](OC(=O)[C@H](OC(=O)C(F)CCN(C)C)[C@@H](NC(=O)OC(C)(C)C)c4ccccc4)C[C@@](O)([C@@H](OC(=O)c4ccccc4)[C@H]21)C3(C)C.Cl (some centres unmarked)
# output 98.6%

====

Experiment: In vitro dissociation of the water soluble taxane derivatives in blood plasma of rat
Type: in vitro ADME, SD rats
Settings: 37° C., 5 min
measured.endpoint: dissociation percent (%)
Dear colleague, please return just the value in %, with no unit written.

# input Record request: dissociation percent value, item CC(=O)O[C@@]12CO[C@@H]1C[C@H](O)[C@@]1(C)C(=O)[C@H](O)C3=C(C)[C@@H](OC(=O)[C@H](OC(=O)[C@@H](F)CCN(C)C)[C@@H](NC(=O)OC(C)(C)C)c4ccccc4)C[C@@](O)([C@@H](OC(=O)c4ccccc4)[C@H]21)C3(C)C.Cl
# output 91.1

# input # query: dissociation percent of entry CO[C@H]1C(=O)[C@]2(C)[C@@H](OC)C[C@H]3OC[C@@]3(OC(C)=O)[C@H]2[C@H](OC(=O)c2ccccc2)[C@]2(O)C[C@H](OC(=O)[C@H](OC(=O)C(F)CCN(C)C)[C@@H](NC(=O)OC(C)(C)C)c3ccccc3)C(C)=C1C2(C)C.CS(=O)(=O)O (some centres unmarked)
# output 88.6

====

System: human ovarian cancer SK-OV-3
Conditions: D22; 24 mg/kg (paclitaxel 16 mg/kg) D0-4 IV
Please go through the items and note down their Tumor volume (D22).
Just the number in mm^3, nothing appended.

# input human ovarian cancer SK-OV-3 / Tumor volume (D22) / CC(=O)O[C@H]1C(=O)[C@@]2(C)[C@H]([C@H](OC(=O)c3ccccc3)[C@]3(O)C[C@H](OC(=O)[C@H](OC(=O)C(F)CCN(C)C(C)C)[C@@H](NC(=O)c4ccccc4)c4ccccc4)C(C)=C1C3(C)C)[C@]1(OC(C)=O)CO[C@@H]1C[C@@H]2O.Cl (stereo partly shown) [Compound 18] : value?
# output 60.4

# input Quick check: Tumor volume (D22) on human ovarian cancer SK-OV-3, item CC(=O)O[C@H]1C(=O)[C@@]2(C)[C@H]([C@H](OC(=O)c3ccccc3)[C@]3(O)C[C@H](OC(=O)[C@H](OC(=O)[C@@H](F)CCN(C)C)[C@@H](NC(=O)c4ccccc4)c4ccccc4)C(C)=C1C3(C)C)[C@]1(OC(C)=O)CO[C@@H]1C[C@@H]2O.CS(=O)(=O)O [Compound C2] ?
# output 51.2

# input What reported Tumor volume (D22) corresponds to CCN(CC)CC[C@H](F)C(=O)O[C@@H](C(=O)O[C@H]1C[C@@]2(O)[C@@H](OC(=O)c3ccccc3)[C@@H]3[C@]4(OC(C)=O)CO[C@@H]4C[C@H](O)[C@@]3(C)C(=O)[C@H](OC(C)=O)C(=C1C)C2(C)C)[C@@H](NC(=O)c1ccccc1)c1ccccc1.O=C(O)/C=C/C(=O)O [Compound 17] on human ovarian cancer SK-OV-3?
# output 55.7

# input Checklist item: Tumor volume (D22) tested on human ovarian cancer SK-OV-3, entry CCN(C)CC[C@@H](F)C(=O)O[C@@H](C(=O)O[C@H]1C[C@@]2(O)[C@@H](OC(=O)c3ccccc3)[C@@H]3[C@]4(OC(C)=O)CO[C@@H]4C[C@H](O)[C@@]3(C)C(=O)[C@H](OC(C)=O)C(=C1C)C2(C)C)[C@@H](NC(=O)c1ccccc1)c1ccccc1.CS(=O)(=O)O [Compound 16] , value?
# output 55.7

====

Test: In vitro dissociation of the water soluble taxane derivatives in blood plasma of rabbit
Format: in vitro ADME, New Zealand white rabbits
Conditions: 37° C., 20 min
measured.endpoint: dissociation percent (%)
Provide the reading as a plain figure in %.

# input dissociation percent lookup needed for COC1C(=O)C2(C)C(OC)CC3OCC3(OC(C)=O)C2C(OC(=O)c2ccccc2)C2(O)CC(OC(=O)C(OC(=O)C(F)CCN(C)C)C(NC(=O)OC(C)(C)C)c3ccccc3)C(C)=C1C2(C)C.Cl (centres unmarked) , thanks.
# output 97.1

# input Please look up its dissociation percent: CC(=O)OC12COC1CC(O)C1(C)C(=O)C(O)C3=C(C)C(OC(=O)C(OC(=O)C(F)CCN(C)C)C(NC(=O)OC(C)(C)C)c4ccccc4)CC(O)(C(OC(=O)c4ccccc4)C21)C3(C)C.Cl (centres unmarked)
# output 93.5

# input Returns the measured dissociation percent for the input compound. Input: COC1C(=O)C2(C)C(OC)CC3OCC3(OC(C)=O)C2C(OC(=O)c2ccccc2)C2(O)CC(OC(=O)C(OC(=O)C(CCN)C(F)F)C(NC(=O)OC(C)(C)C)c3ccccc3)C(C)=C1C2(C)C.O=S(=O)([O-])O.[Na+] (centres unmarked)
# output 63.2

# input What dissociation percent value was documented for this compound, CC(=O)O[C@@]12CO[C@@H]1C[C@H](O)[C@@]1(C)C(=O)[C@H](O)C3=C(C)[C@@H](OC(=O)[C@H](OC(=O)[C@H](F)CCN(C)C)[C@@H](NC(=O)OC(C)(C)C)c4ccccc4)C[C@@](O)([C@@H](OC(=O)c4ccccc4)[C@H]21)C3(C)C.CS(=O)(=O)O ?
# output 94.8

# input What does the data say about its dissociation percent? Entry: CC(=O)O[C@H]1C(=O)[C@@]2(C)[C@H]([C@H](OC(=O)c3ccccc3)[C@]3(O)C[C@H](OC(=O)[C@H](OC(=O)[C@@H](F)CCN(C)C)[C@@H](NC(=O)c4ccccc4)c4ccccc4)C(C)=C1C3(C)C)[C@]1(OC(C)=O)CO[C@@H]1C[C@@H]2O.Cl
# output 97.5

====

Test system: KM mice
Test: ED50 and LD50 test concerning anesthesia (sequential method) in mice
Type: in vivo
Settings: 3 mg/ml solution, first test
Marks after values point to notes of the source that are not given here.
Record form. Attribute: TI Mouse. Fill in for each entry.

# input Bench note: what TI Mouse did CC(C)c1cccc(C(C)C)c1OC(=O)[C@@H](F)CCOP(=O)([O-])[O-].[Na+].[Na+] [Compound G2] show?
# output 2.8*

# input Dear colleague, I am looking for the recorded TI Mouse of the following compound: CC(C)c1cccc(C(C)C)c1OC(=O)C(F)CC(=O)[O-].[Na+] (stereo not shown) [Compound F7]
# output 2.8*

# input GET /values?readout=TI Mouse&item= CC(C)c1cccc(C(C)C)c1OC(=O)[C@H](F)CCN(C)C.Cl [Compound E2]
# output 4*

# input Look at this compound and give its reported TI Mouse. CC(C)c1cccc(C(C)C)c1OC(=O)C(F)CCC(=O)[O-].[Na+] (racemic) [Compound F1]
# output 3*

====

Experiment: In vitro dissociation of the water soluble taxane derivatives in blood plasma of rabbit
Assay type: in vitro ADME, New Zealand white rabbits
Conditions: 37° C., 60 min
Where a name gives a salt, the structure may show the parent alone.
Could you please report measured dissociation percent for the items listed next?
Numbers only here, please. The scale is %.

# input Recorded dissociation percent of CC(=O)O[C@@]12CO[C@@H]1C[C@H](O)[C@@]1(C)C(=O)[C@H](O)C3=C(C)[C@@H](OC(=O)[C@H](OC(=O)C(F)CCN(C)C)[C@@H](NC(=O)OC(C)(C)C)c4ccccc4)C[C@@](O)([C@@H](OC(=O)c4ccccc4)[C@H]21)C3(C)C.CS(=O)(=O)O (some centres unmarked) , please.
# output 100

# input Any idea what its dissociation percent is? The compound is CC(=O)O[C@@]12CO[C@@H]1C[C@H](O)[C@@]1(C)C(=O)[C@H](O)C3=C(C)[C@@H](OC(=O)[C@H](OC(=O)[C@@H](F)CCN(C)C)[C@@H](NC(=O)OC(C)(C)C)c4ccccc4)C[C@@](O)([C@@H](OC(=O)c4ccccc4)[C@H]21)C3(C)C.CS(=O)(=O)O
# output 100

# input Requested read-out: dissociation percent. Entry: CO[C@H]1C(=O)[C@]2(C)[C@@H](OC)C[C@H]3OC[C@@]3(OC(C)=O)[C@H]2[C@H](OC(=O)c2ccccc2)[C@]2(O)C[C@H](OC(=O)[C@H](OC(=O)[C@H](F)CCN(C)C)[C@@H](NC(=O)OC(C)(C)C)c3ccccc3)C(C)=C1C2(C)C [Compound 07, hydrochloride]
# output 100

# input Suppose we examine the compound CC(=O)O[C@@]12CO[C@@H]1C[C@H](O)[C@@]1(C)C(=O)[C@H](O)C3=C(C)[C@@H](OC(=O)[C@H](OC(=O)C(F)CCN(C)C)[C@@H](NC(=O)OC(C)(C)C)c4ccccc4)C[C@@](O)([C@@H](OC(=O)c4ccccc4)[C@H]21)C3(C)C.Cl (some centres unmarked) ; what dissociation percent value has been reported?
# output 100

# input Quick check: dissociation percent of CO[C@H]1C(=O)[C@]2(C)[C@@H](OC)C[C@H]3OC[C@@]3(OC(C)=O)[C@H]2[C@H](OC(=O)c2ccccc2)[C@]2(O)C[C@H](OC(=O)[C@H](OC(=O)[C@@H](F)CCN(C)C)[C@@H](NC(=O)OC(C)(C)C)c3ccccc3)C(C)=C1C2(C)C.Cl ?
# output 100
